FYI, the data here is from paper PMC11249646.

target-under-test: CIB1 and αIIb interaction (CIB1-GST : F-αIIb peptide) (Homo sapiens, UniProt Q99828)
Construct: made in house; host or cells: BL-21 plus RIL cells (E. coli)
Sequence (Q99828 1-191): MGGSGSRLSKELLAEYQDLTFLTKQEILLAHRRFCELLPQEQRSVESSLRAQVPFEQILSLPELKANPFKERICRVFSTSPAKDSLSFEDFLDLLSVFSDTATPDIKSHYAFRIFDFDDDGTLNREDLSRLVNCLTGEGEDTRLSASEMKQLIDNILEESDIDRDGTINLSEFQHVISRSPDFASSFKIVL
assay: FP assay, 1536-well qHTS format (primary and confirmatory screen)
Type: binding
recorded-conditions: qHTS FP screen hits, Table S2; negative = inhibition
Hi, to clarify the labels: y covers Efficacy (%) from -40% upward, n covers anything below -40%.

Example entries and their recorded answers appear below.
Cc1c2c(=O)n(-c3ccccc3)[nH]c2cc(=O)n1-c1cccnc1.O=C(O)C(F)(F)F [NCGC00248472-01]	y
Cl.N=C(NCCCCCCNC(=N)NC(=N)Nc1ccc(Cl)cc1)NC(=N)Nc1ccc(Cl)cc1 [NCGC00016246-13]	y
O=C(O)CSc1cc(NS(=O)(=O)c2ccc(Br)cc2)c2ccccc2c1O [NCGC00386409-01]	n

# input for lookup
Request: Exam item: decide whether the reported Efficacy (%) for COc1ccc(C(=O)c2no[n+]([O-])c2C(=O)c2ccc(OC)cc2)cc1.O=C(O)C(F)(F)F [NCGC00064079-03] is at least -40%.
Result: y
